- System tested: MEK1 activated ERK1 (Homo sapiens (Human))
- Sequence (P27361 whole entry): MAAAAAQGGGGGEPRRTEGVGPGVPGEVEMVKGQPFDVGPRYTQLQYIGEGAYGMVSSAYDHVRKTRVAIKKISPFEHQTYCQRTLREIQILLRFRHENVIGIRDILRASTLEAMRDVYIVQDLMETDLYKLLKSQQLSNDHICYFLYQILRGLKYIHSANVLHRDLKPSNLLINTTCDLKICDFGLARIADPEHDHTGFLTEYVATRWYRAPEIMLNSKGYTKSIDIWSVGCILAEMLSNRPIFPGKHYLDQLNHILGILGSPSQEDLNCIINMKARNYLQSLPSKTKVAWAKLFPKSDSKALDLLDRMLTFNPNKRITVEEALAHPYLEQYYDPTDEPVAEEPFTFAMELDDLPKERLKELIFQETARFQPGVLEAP
- Experiment description: Omnia continuous-read kinase assay for potency against MEK1 activated ERK1
- Format: biochemical
- Condition: MEK1 activated ERK1, WT, ATP at KM
Recorded endpoint: IC50

Inquiry: Consider the compound "C=CC(=O)Nc1cc(F)ccc1Nc1nc(Nc2cc(C(N)=O)ccc2C)ncc1Cl" and give its measured IC50.
Reply text: < 100 nM

Inquiry: Which IC50 is reported for this compound? "COc1cc(Nc2ncc(C(F)(F)F)c(Nc3ccc(C)cc3N)n2)c(C)cn1"
Reply text: > 1000 nM

Inquiry: Fill in: IC50 of "C=CC(=O)Nc1cc(C)ccc1Nc1nc(Nc2cc(OC)cc(OC)c2)ncc1C(F)(F)F" is ___
Reply text: > 1000 nM

Inquiry: Look up IC50 for this compound: "C=CC(=O)Nc1ccccc1Nc1nc(NC2CCOCC2)ncc1Cl"
Reply text: < 100 nM
